Target: 5-hydroxytryptamine receptor 2C (Rattus norvegicus, UniProt P08909)
Sequence (P08909 whole entry): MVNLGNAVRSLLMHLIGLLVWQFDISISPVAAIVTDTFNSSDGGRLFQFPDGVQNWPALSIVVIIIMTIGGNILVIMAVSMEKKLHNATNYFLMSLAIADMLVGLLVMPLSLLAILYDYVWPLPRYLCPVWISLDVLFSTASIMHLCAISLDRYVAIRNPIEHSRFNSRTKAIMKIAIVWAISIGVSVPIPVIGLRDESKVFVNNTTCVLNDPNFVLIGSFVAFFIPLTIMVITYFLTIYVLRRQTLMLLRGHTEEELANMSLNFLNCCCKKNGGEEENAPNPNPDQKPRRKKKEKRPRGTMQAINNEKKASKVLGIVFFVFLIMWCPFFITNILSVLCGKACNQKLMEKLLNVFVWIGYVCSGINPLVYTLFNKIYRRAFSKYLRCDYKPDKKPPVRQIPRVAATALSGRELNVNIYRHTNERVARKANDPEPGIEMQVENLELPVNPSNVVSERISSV
pKi: −log10 of the molar value.

>  <Compound>
NCCc1c[nH]c2ccc(C(N)=O)cc12 [[3H]-5-carboxamidotryptamine]

>  <Tested Target>
5-hydroxytryptamine receptor 2C (Rattus norvegicus, UniProt P08909)

>  <pKi>
5.24

$$$$

The measurements presented in this section are drawn from BindingDB's records for doi:10.1111/j.1749-6632.1998.tb10185.x.
